# reported residual activity; entries follow
studyTarget: PAK2 (human) (UniProt Q13177)
Sequence (Q13177 whole entry, looked up): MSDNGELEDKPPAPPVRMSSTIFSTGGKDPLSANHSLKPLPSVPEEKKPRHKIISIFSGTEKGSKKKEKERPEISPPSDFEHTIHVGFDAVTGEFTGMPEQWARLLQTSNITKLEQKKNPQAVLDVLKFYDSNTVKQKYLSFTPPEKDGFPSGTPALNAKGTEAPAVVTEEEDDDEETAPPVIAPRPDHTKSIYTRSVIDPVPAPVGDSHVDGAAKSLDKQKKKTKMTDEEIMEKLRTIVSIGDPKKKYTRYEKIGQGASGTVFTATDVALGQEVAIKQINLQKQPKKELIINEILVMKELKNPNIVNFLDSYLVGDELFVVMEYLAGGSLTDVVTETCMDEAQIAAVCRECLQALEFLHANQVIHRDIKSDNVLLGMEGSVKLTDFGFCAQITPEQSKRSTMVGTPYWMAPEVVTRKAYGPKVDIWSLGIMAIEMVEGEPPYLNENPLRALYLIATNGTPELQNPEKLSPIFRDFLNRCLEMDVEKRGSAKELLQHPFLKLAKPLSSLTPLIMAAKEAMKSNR
testSummary: radiometric filter-binding kinase assay, Kinase HotSpot
experimentalConditions: compound 0.5 µM; ATP 10 µM
Form entry: value (%) — number only.

Examples with answers:
Recorded residual activity for N#CCCc1ccc2c(c1)-c1[nH]c3ccc([N+](=O)[O-])cc3c1CC(=O)N2 , please? 55.6

For O=C1NC(=O)c2cc(Nc3ccc(F)cc3)c(Nc3ccc(F)cc3)cc21 , what is its reported residual activity? 98.5

Recorded residual activity for O=C(O)c1ccc2c3c1cccc3c(=O)n1c3ccccc3nc21 , please? 97

Next:
Look up residual activity for this molecule: COc1cc2c(cc1OC)-c1[nH]nc(Nc3cccc(F)c3)c1C2 99.6

What value of measured residual activity is listed for O=C1NC(=O)c2c1c1c3ccccc3[nH]c1c1[nH]c3cc(Br)ccc3c21 ? 101

I am curious: what residual activity value has been reported for COc1cc2c(Nc3ccc(Br)cc3F)ncnc2cc1OCC1CCN(C)CC1 ? 103

Entry c1ccc(-c2cnc(Nc3ccc(OCCN4CCCC4)cc3)s2)cc1 has what residual activity? 94.8

Which residual activity is listed for COc1cccc(-c2cc(=O)c3ccccc3o2)c1N ? 104

Please give the measured residual activity for this molecule: O=c1c2ccccc2[nH]c(=S)n1CCN1CCC(=C(c2ccc(F)cc2)c2ccc(F)cc2)CC1 103
